# Decomposition efficiency of genistin family in defatted soybean annotations
tested on: Crude diglycosidase; assay: Examination of temperature in the conversion into isoflavone aglycons by diglycosidase using soybean materials; format: biochemical, Penicillium multicolor IAM7153; conditions: 80° C., heat treatment of enzyme no, reaction time 3 h
The answer is to be given in %; state only the numeric part.

Worked cases, Decomposition efficiency of genistin family in defatted soybean given:
## Task Please give the measured Decomposition efficiency of genistin family in defatted soybean for this molecule: O=c1c(-c2ccc(O)cc2)coc2cc(O)cc(O)c12 [genistein]
## Result 43.3

## Task Please give the measured Decomposition efficiency of genistin family in defatted soybean for this molecule: CC(=O)OC[C@H]1O[C@@H](Oc2cc(O)c3c(=O)c(-c4ccc(O)cc4)coc3c2)[C@H](O)[C@@H](O)[C@@H]1O [acetylgenistin, 6″-O-acetylgenistin]
## Result 2.1

## Task Please give the measured Decomposition efficiency of genistin family in defatted soybean for this molecule: O=C(O)CC(=O)OC[C@H]1O[C@@H](Oc2cc(O)c3c(=O)c(-c4ccc(O)cc4)coc3c2)[C@H](O)[C@@H](O)[C@@H]1O [malonylgenistin, 6″-O-malonylgenistin]
## Result 32.5

Proceeding to the next molecule to report its Decomposition efficiency of genistin family in defatted soybean.
## Task Please give the measured Decomposition efficiency of genistin family in defatted soybean for this molecule: O=c1c(-c2ccc(O)cc2)coc2cc(O[C@@H]3O[C@H](CO)[C@@H](O)[C@H](O)[C@H]3O)cc(O)c12 [genistin]
## Result 22.1

Hello, the source for this data is patent US7118895B2, in case you need it.
